// merged dataset of IC50 values, system = Tyrosine-protein kinase JAK2 (Homo sapiens, UniProt O60674), multiple refs

{"MOLECULE": "Cc1c[nH]c(C(=O)N2CC[C@H](Oc3ccc(-c4ncnc(Nc5ccc(N6CCN(C7COC7)CC6)cc5)n4)cc3C#N)[C@H](F)C2)n1", "IC50": "323 nM"}
{"MOLECULE": "O=S(=O)(c1cccc2cccnc12)n1ccc2cnc(Nc3ccc(N4CCNCC4)cc3)nc21", "IC50": "< 20 nM"}
{"MOLECULE": "Cc1ccc2c(ccn2C[C@H](O)CNc2cc[nH]c(=O)c2-c2nc3cc4c(cc3[nH]2)C(=O)N(C2CCN(C)CC2)C4=O)c1", "IC50": "500 to 5000 nM"}
{"MOLECULE": "COc1cc(Nc2ncnc(-c3ccc(O[C@@H]4CCC(=O)NC4)c(C#N)c3)n2)ccc1N1CCN(C2COC2)CC1", "IC50": "55 nM"}
{"MOLECULE": "Nc1cc2ccc1-c1ccnc(n1)Nc1ccc(Oc3ccc(F)cc3)c(c1)COCCCCNC2=O", "IC50": "101 to 1000 nM"}
{"MOLECULE": "COc1cnc(Nc2ccc(-c3cnco3)cc2)nc1-c1cnn(C(CC#N)C2CCCC2)c1 (racemic)", "IC50": "< 100 nM"}
{"MOLECULE": "CCn1nc(C(=O)CC#N)c2c1CCN(c1ncnc3[nH]ccc13)C2", "IC50": "500 to 2000 nM"}
{"MOLECULE": "CN1CCN(c2ccc3cc2COCCCCNC(=O)c2ccc(c([N+](=O)[O-])c2)-c2ccnc(n2)N3)CC1", "IC50": "1000 to 10000 nM"}
{"MOLECULE": "C[C@H](O)C(=O)N1CC[C@H](Oc2ccc(-c3ncnc(Nc4ccc(N5CCN(C6COC6)C[C@@H]5C)cc4)n3)cc2C#N)[C@H](F)C1", "IC50": "389 nM"}
{"MOLECULE": "CCCS(=O)(=O)N[C@H]1C[C@@H](Nc2c(-c3nnc(C)o3)cnc3[nH]ccc23)C1", "IC50": "10 to 100 nM"}
{"MOLECULE": "Nc1nn2ccc(N3CCC[C@@H]3c3cc(F)ccc3F)nc2c1C(=O)Nc1ccc(F)cc1", "IC50": "> 500 nM"}
{"MOLECULE": "N#CCC(=O)N1CCC[C@@H](Nc2c(-c3nccs3)cnc3[nH]ccc23)C1", "IC50": "≤ 10 nM"}
{"MOLECULE": "N#Cc1ccnc(S(=O)(=O)N[C@H]2C[C@H](Nc3c(-c4ccncn4)cnc4[nH]ccc34)C2)c1", "IC50": "≤ 10 nM"}
{"MOLECULE": "CC1CCCCCC1n1cc(-c2nc(-c3cnn(C)c3)cn3nccc23)cn1 (stereo not drawn)", "IC50": "10 to 100 nM"}
{"MOLECULE": "CNC(=O)c1n[nH]c2cc(-c3cc(F)c(O)cc3CC(F)(F)F)nc(NCc3ccccc3N(C)S(=O)(=O)c3cn[nH]c3)c12", "IC50": "54.4 nM"}
{"MOLECULE": "Cc1ccc(OC[C@@H](O)CNc2cc[nH]c(=O)c2-c2nc3cc4c(cc3[nH]2)C(=O)N([C@@H]2CCN(C)C2)C4=O)c(C)c1", "IC50": "500 to 5000 nM"}
{"MOLECULE": "N#CC[C@H]1CC[C@H](n2c(CO)nc3cnc4ccsc4c32)CO1", "IC50": "≤ 1000 nM"}
{"MOLECULE": "CC(C)C[C@H](C)n1cc(-c2nc(-c3cnn(C(CO)CO)c3)cn3nccc23)cn1", "IC50": "100 to 1000 nM"}
{"MOLECULE": "O=C(Nc1nc2ccc(Oc3ccc4c(c3)CN(C(=O)Nc3ccc(F)cc3F)C4)nc2s1)C1CC1", "IC50": "> 10000 nM"}
{"MOLECULE": "CCC(CC)n1cc(-c2nc(-c3cnn(CC4CCOCC4)c3)cn3nccc23)cn1", "IC50": "10 to 100 nM"}
{"MOLECULE": "CN(c1ncnc2[nH]ccc12)C1CC2(C1)CN(C(=O)c1csc3ccccc13)C2", "IC50": "1000 to 10000 nM"}
{"MOLECULE": "N#CCC1(n2cc(-c3ncnc4[nH]ccc34)cn2)CN(C2CCN(C(=O)Nc3cc(F)cc(F)c3F)CC2)C1", "IC50": "10 to 50 nM"}
{"MOLECULE": "CCCCOC(=O)Cn1cc(Nc2ncc3ccn(CC(CC)C(C)C)c3n2)cn1 (stereo not drawn)", "IC50": "< 100 nM"}
{"MOLECULE": "Nc1cc2ccc1-c1ccnc(n1)Nc1ccc(OCc3cccc4c3COC4)c(c1)COCCCCNC2=O", "IC50": "101 to 1000 nM"}
{"MOLECULE": "N#CCC1(n2cc(-c3ncnc4[nH]ccc34)cn2)CN(C2CCN(C(=O)Nc3ncccc3F)CC2)C1", "IC50": "10 to 50 nM"}
{"MOLECULE": "CCC(CC)n1cc(-c2nc(-c3cnn(CCCN(C)C)c3)cn3nccc23)cn1", "IC50": "100 to 1000 nM"}
{"MOLECULE": "CCC(Cn1ccc2cnc(Nc3cnn(CC(=O)OC(C)C)c3)nc21)CC(F)(F)F (stereo not drawn)", "IC50": "< 100 nM"}
{"MOLECULE": "C[C@@H]1CN(c2ccc(Nc3ncc4ccn(S(=O)(=O)c5ccccc5C#N)c4n3)cc2)CCN1", "IC50": "< 20 nM"}
{"MOLECULE": "CCS(=O)(=O)N1CC2(CC(N(C)c3ncnc4[nH]ccc34)C2)C1", "IC50": "100 to 1000 nM"}
{"MOLECULE": "CCC(=O)c1cnc(Nc2cnc(CN(C)CC(F)(F)F)cn2)cc1Nc1cccc(-c2ncn(C)n2)c1OC", "IC50": "≥ 500 nM"}
